Values compiled from ChEMBL document CHEMBL3988442.

target of assay: Protein translocase subunit SecA (Escherichia coli (strain K12))
assay notes: Assay to Identify E. coli SecA ATPase Inhibitors
Format: functional
Parameters: scale not given: direction of the effect not stated beside the values
recorded conditions: 30 µM
Entries with a potency or affinity are not part of this list.
reported property: Percent Effect (%)
Number only, in %; omit the unit.

Problem: Determine from records and report Percent Effect for `CN(CCn1nc2ccccn2c1=O)CC(=O)N1CCCC1`
Result: -5.53

Problem: Determine from records and report Percent Effect for Cc1ccc(N2CCC3(CC2)CC(OCC(=O)N(C)C)CO3)nn1 (configuration not stated)
Result: -2.67

Problem: Determine from records and report Percent Effect for Cc1cc(C(=O)N2CCCC(n3ccnc3C)C2)c(C)s1 (configuration not stated)
Result: -3.98

Problem: Determine from records and report Percent Effect for `Cn1nc2c(cc1=O)CN(CC(=O)Nc1ccc(Cl)cn1)CC2`
Result: -3.42

Problem: Determine from records and report Percent Effect for NC(=O)c1cnn2c1NCC(CNCCc1ccco1)C2 (configuration not stated)
Result: -1.64

Problem: Determine from records and report Percent Effect for COc1ccc(CNC(C)c2cccc(Cl)c2)c(OC)c1OC (configuration not stated)
Result: -1.96

Problem: Determine from records and report Percent Effect for CC(NC(=O)NCCCn1ccnc1)c1ccc2c(c1)CCC(=O)N2 (configuration not stated)
Result: -5.85

Problem: Determine from records and report Percent Effect for CC1CN=C(N2CCN(C(=O)Nc3nc(-c4ccccc4)ns3)CC2)S1 (configuration not stated)
Result: -9.42

Problem: Determine from records and report Percent Effect for `Cc1nn(C(C)C)c(C)c1NC(=O)c1ccncc1`
Result: -2.46

Problem: Determine from records and report Percent Effect for CC1CCCN(CC(=O)N2CCC(c3ncc4c(n3)CCNC4)CC2)C1 (configuration not stated)
Result: -3.77

Problem: Determine from records and report Percent Effect for Cc1cc(C)n(C2CCCN(C(=O)c3cnc4onc(C)c4c3)C2)n1 (configuration not stated)
Result: -2.86

Problem: Determine from records and report Percent Effect for Cc1nn(C)c(N(C)C)c1CNC1CCc2c(F)cccc21 (configuration not stated)
Result: 0.322

Problem: Determine from records and report Percent Effect for CCn1cc(NC(=O)NCC(O)COc2cccc(F)c2)cn1 (configuration not stated)
Result: 2.07

Problem: Determine from records and report Percent Effect for `Cc1cnn(CCNCc2nc(-c3ccccc3Cl)no2)c1`
Result: -4.16

Problem: Determine from records and report Percent Effect for CC(c1ccco1)N(C)Cc1nc2c(cnn2C)c(=O)[nH]1 (configuration not stated)
Result: -2.49

Problem: Determine from records and report Percent Effect for `c1ccc(OCCCNCCn2cccn2)cc1`
Result: -4.38

Problem: Determine from records and report Percent Effect for `CCN1CCn2c(C)cnc2C12CCN(C(=O)c1ccc(Cl)cc1)CC2`
Result: -4.5

Problem: Determine from records and report Percent Effect for `O=C(c1c[nH]c(=O)c(Cl)c1)N1C[C@@H]2CC[C@H](C1)N(Cc1ccccc1)C2`
Result: -3.94

Problem: Determine from records and report Percent Effect for O=c1cc(CN2CCCC(CCc3c(F)cccc3F)C2)[nH]c(=O)[nH]1 (configuration not stated)
Result: 1.76

Problem: Determine from records and report Percent Effect for COC(=O)c1sccc1S(=O)(=O)NCC1(O)CCOc2ccccc21 (configuration not stated)
Result: -3.54

Problem: Determine from records and report Percent Effect for `COc1ccc(CS(=O)(=O)CC(=O)NCC2CC2)cc1F`
Result: -1.25

Problem: Determine from records and report Percent Effect for COCCC(=O)N1CCC2(COCc3c(C)nc(NCC4CC4)nc32)C1 (configuration not stated)
Result: -1.4

Problem: Determine from records and report Percent Effect for Cc1nn(C)c(C)c1C1CCCN1C(=O)c1ccc(CN(C)C)cc1 (configuration not stated)
Result: -0.183

Problem: Determine from records and report Percent Effect for COc1cccc(N2CCN(CC(O)c3ccc(C)cc3)CC2)c1 (configuration not stated)
Result: -1.61

Problem: Determine from records and report Percent Effect for `Cc1ncoc1C(=O)N1C[C@H]2CCC[C@@]2(COCC2CCOCC2)C1`
Result: -3.5

Problem: Determine from records and report Percent Effect for Cc1cnn(CC2CCCN2C(=O)CCc2ccsc2)c1 (configuration not stated)
Result: -4.66

Problem: Determine from records and report Percent Effect for `CN1CCN(C(=O)[C@@H]2CCO[C@@H]3CCN(c4ncccn4)C[C@@H]32)CC1`
Result: -0.254

Problem: Determine from records and report Percent Effect for Cc1nn(C)c(C)c1C1CCCN1CC(=O)Nc1ccncc1 (configuration not stated)
Result: -3.89

Problem: Determine from records and report Percent Effect for CCN(C1CCS(=O)(=O)C1)S(=O)(=O)c1cccc2cc(C)cnc12 (configuration not stated)
Result: -4.6

Problem: Determine from records and report Percent Effect for `O=C(c1cnoc1)N1CCC[C@]2(C[C@H](Oc3ncccc3F)CO2)C1`
Result: -4.36

Problem: Determine from records and report Percent Effect for CN1C(=O)C(c2ccccc2)CC12CCN(CCOCCO)CC2 (configuration not stated)
Result: 1.44

Problem: Determine from records and report Percent Effect for `CC(=O)N1CCCN(C(=O)c2csc(-c3ccc(C)cc3C)n2)CC1`
Result: -4.67

Problem: Determine from records and report Percent Effect for c1ccc(-c2nc(CN3CCCC(Cn4cncn4)C3)co2)cc1 (configuration not stated)
Result: -0.495

Problem: Determine from records and report Percent Effect for `CC(=O)N1CCC(C(=O)c2cc(C)cnc2N)CC1`
Result: -3.36

Problem: Determine from records and report Percent Effect for Cc1nc2ccccc2nc1CN(C)CC1CCCN1c1cccnn1 (configuration not stated)
Result: -5.25

Problem: Determine from records and report Percent Effect for `CCS(=O)(=O)NC[C@]12COC[C@H]1CN(Cc1cccc(OC)c1)C2`
Result: -2.67

Problem: Determine from records and report Percent Effect for `Cn1cc(N2CC3(CCN(CC4CCOCC4)CC3)OCC2=O)cn1`
Result: -1.91

* * *

Organism: Homo sapiens
assay notes: To identify inhibition of the IFN signalling (Jak-Stat) pathway via expression of an eGFP reporter gene under the control of an IFN-stimulated response element (ISRE) containing MxA promoter.
Type: functional
Design: scale not given: direction of the effect not stated beside the values
recorded conditions: 30 µM
reported property: Percent Effect (%)
Number only, in %; omit the unit.

Problem: Determine from records and report Percent Effect for `Cc1csc(CNC(=O)NCCc2ccc3c(c2)OCCO3)n1`
Result: 8.98

Problem: Determine from records and report Percent Effect for O=C(c1ccncc1)N1CCC(c2nc(O)cc(-c3ccncc3)n2)C1 (stereo unspecified)
Result: 4.05

Problem: Determine from records and report Percent Effect for CC(=O)N1CCOC(c2cc(N3CC(O)C3)nc(C)n2)C1 (stereo unspecified)
Result: 0.425

Problem: Determine from records and report Percent Effect for `CNc1nc(CNC(=O)Nc2cccc(F)c2C)cs1`
Result: 8.24

Problem: Determine from records and report Percent Effect for `c1cc(CN2CCN(Cc3cscn3)CC2)cs1`
Result: 29.1

Problem: Determine from records and report Percent Effect for Cc1csc(C2CCCN(C(=O)c3cc(Cl)c[nH]3)C2)n1 (stereo unspecified)
Result: 19

Problem: Determine from records and report Percent Effect for O=C(c1ccc2c(c1)OCO2)N1CCCC(n2cccn2)C1 (stereo unspecified)
Result: 27.9

Problem: Determine from records and report Percent Effect for `COc1ccc(NC(=O)CNc2ccc(Br)cc2F)cc1`
Result: 39.2

Problem: Determine from records and report Percent Effect for `N#Cc1ccc(OC2CCN(C(=O)c3ccc4c(c3)OCO4)CC2)nc1`
Result: 8.98

Problem: Determine from records and report Percent Effect for COC(=O)c1ccc(N2CCN(C(=O)c3ccncc3)C(C)C2)cc1 (stereo unspecified)
Result: 20.8

Problem: Determine from records and report Percent Effect for CNS(=O)(=O)c1cccc(C(C)NCc2nccn2C(C)C)c1 (stereo unspecified)
Result: 10.9

Problem: Determine from records and report Percent Effect for Cc1nc(C2CCCN(C(=O)c3ccc(Cn4cccn4)o3)C2)no1 (stereo unspecified)
Result: 10.9

Problem: Determine from records and report Percent Effect for `CCc1nc(CN2CCCN(C(=O)CCc3ccco3)CC2)cs1`
Result: 3.92

Problem: Determine from records and report Percent Effect for `NC(=O)C1CCN(Cn2nc(-c3ccccc3)oc2=O)CC1`
Result: 2.82

Problem: Determine from records and report Percent Effect for Cc1cnn(CC2CCCCN2C(=O)c2ccc3[nH]nnc3c2)c1 (stereo unspecified)
Result: 22.2

Problem: Determine from records and report Percent Effect for `Cc1nnc(N2CC[C@H](OCC3CC3)[C@@H](Cc3ccccc3)C2)s1`
Result: -7.72

* * *

Task for the reader: assign each of the following compounds its reported Percent Effect.
target of assay: Protein translocase subunit SecA (Escherichia coli (strain K12)) (UniProt P10408)
Sequence (P10408 whole entry): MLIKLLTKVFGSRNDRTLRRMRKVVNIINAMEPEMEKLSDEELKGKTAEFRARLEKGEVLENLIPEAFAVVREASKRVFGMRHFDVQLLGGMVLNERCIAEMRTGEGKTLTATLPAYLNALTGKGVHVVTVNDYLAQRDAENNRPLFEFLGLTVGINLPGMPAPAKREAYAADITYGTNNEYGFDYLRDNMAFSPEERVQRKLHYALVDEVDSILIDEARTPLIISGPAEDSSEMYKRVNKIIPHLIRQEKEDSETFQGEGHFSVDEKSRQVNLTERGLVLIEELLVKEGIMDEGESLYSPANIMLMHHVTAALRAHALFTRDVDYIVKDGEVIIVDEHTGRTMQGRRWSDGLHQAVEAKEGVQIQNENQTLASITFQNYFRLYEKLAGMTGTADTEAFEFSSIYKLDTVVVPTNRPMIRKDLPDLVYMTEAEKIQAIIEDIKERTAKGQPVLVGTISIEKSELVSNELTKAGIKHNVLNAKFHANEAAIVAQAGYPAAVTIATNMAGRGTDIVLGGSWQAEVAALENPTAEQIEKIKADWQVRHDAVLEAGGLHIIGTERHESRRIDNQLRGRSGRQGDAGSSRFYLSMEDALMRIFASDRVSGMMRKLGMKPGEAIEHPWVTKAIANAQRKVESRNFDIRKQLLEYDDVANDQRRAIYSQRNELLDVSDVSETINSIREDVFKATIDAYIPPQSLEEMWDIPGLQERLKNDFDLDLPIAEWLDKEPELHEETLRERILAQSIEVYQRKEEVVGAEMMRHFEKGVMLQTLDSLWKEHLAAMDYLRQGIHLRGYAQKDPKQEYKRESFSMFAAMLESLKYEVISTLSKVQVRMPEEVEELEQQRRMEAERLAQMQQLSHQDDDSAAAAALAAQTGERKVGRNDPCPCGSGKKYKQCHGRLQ
assay notes: Assay to Identify E. coli SecA ATPase Inhibitors
Type: functional
Parameters: scale not given: direction of the effect not stated beside the values
recorded conditions: 30 µM
Results with a measured potency or affinity are listed apart.

Problem: Determine from records and report Percent Effect for Cc1noc(CCCC(=O)NC(C)c2ccccn2)n1 (centres undefined)
Result: -1.78%

Problem: Determine from records and report Percent Effect for CCC(C)CNc1ccc2oc(COC)nc2c1 (centres undefined)
Result: 7.14%

Problem: Determine from records and report Percent Effect for `CN(C)C(=O)[C@@H]1CCO[C@@H]2CCN(CCc3ccccc3)C[C@@H]21`
Result: -1.12%

Problem: Determine from records and report Percent Effect for `CS(=O)(=O)NCCCNC(=O)c1cccc(-n2cccc2)c1`
Result: -5.41%

Problem: Determine from records and report Percent Effect for `Cn1cnc(S(=O)(=O)N2CCN(Cc3ccco3)CC2)c1Cl`
Result: -3.16%

Problem: Determine from records and report Percent Effect for O=S(=O)(CCN1CCOC(Cn2cncn2)C1)c1ccccc1 (centres undefined)
Result: -1.18%

Problem: Determine from records and report Percent Effect for Cc1cc(C)nc(CCNC(=O)C(c2ccc(F)cc2)N(C)C)n1 (centres undefined)
Result: 6.75%

Problem: Determine from records and report Percent Effect for `C=C1c2ccccc2C(=O)N1CCC(=O)N1CCNC(=O)C1`
Result: -2.89%

Problem: Determine from records and report Percent Effect for CCn1c(C)nnc1CN(C)C1CCN(CCc2ccncc2)C1 (centres undefined)
Result: -2.2%
